assayProcedure: recombinant barcode read abundance after kanamycin selection (control-corrected) (log10(CPM+1)); higher = more efficient recombination; sequences stand for … in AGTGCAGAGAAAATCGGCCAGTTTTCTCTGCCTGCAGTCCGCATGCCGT…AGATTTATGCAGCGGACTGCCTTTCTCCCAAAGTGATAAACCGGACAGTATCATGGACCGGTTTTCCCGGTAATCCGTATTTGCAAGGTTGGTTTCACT; site = the 11-nt target;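 further: IS621 recombinase and bridge RNA in Escherichia coli cells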
measurementName: recombinant barcode read abundance (log10)

{"columns": ["seq", "dataValue"],
 "data": [
  ["ATCAAGACTTGGGTTCTAACCTGTTGCCT (site ATAAAGACTAG)", 0.266],
  ["GGAATGACTTGGGTTCTAACCTGTTGCCT (site GGAATGACTAG)", 2.02],
  ["AGACTAGCTTGGGTTCTAACCTGTTGCGT (site AGACTAGCTAC)", 2.51],
  ["TAGGGTCCTTGGGTTCTAACCTGTTGCGG (site TAAGGTCCTCT)", 1.35],
  ["ATCCCATCTTGGGTTCTAACCTGTTGCCT (site ATGCCATCTAG)", 0.0333],
  ["CATCGGGCTTGGGTTCTAACCTGTTGCAG (site CGTCGGGCTCT)", 0.00527],
  ["TAACGATCTTGGGTTCTAACCTGTTGCAT (site TAACGGTCTAA)", 0.0405],
  ["TAGTCCTCTTGGGTTCTAACCTGTTGCTC (site TAGTCCTCTGA)", 0.935],
  ["CGACACACTTGGGTTCTAACCTGTTGCCT (site CGACACACTAG)", 0.135],
  ["ATCCACCCTTGGGTTCTAACCTGTTGCCT (site ATCCAACCTAG)", 0.15],
  ["AAACCGCCTTGGGTTCTAACCTGTTGCCT (site AAACGGCCTAG)", 0.163],
  ["CGATTACCTTGGGTTCTAACCTGTTGCCT (site CGATTAGCTAG)", 0.38]
]}
